- SYSTEM NAME: human recombinant wild-type ALK kinase domain (amino acids 1093-1411) (Homo sapiens, UniProt Q9UM73)
- Construct: ALK kinase domain (amino acids 1093-1411); made in house
- Sequence (Q9UM73 1093-1411): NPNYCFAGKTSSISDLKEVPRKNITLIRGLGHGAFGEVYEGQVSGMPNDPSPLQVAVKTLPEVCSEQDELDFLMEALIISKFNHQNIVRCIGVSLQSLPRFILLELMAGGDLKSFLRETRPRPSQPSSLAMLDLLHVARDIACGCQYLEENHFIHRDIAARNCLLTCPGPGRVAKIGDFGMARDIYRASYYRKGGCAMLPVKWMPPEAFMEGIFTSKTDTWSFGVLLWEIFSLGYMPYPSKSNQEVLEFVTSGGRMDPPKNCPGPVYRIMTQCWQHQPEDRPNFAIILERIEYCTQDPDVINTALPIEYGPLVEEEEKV
- MEASUREMENT NOTES: Wild-type ALK enzyme assay (microfluidic mobility shift)
- Format: biochemical
- REPORTED CONDITIONS: ATP 60 μM, competitive inhibition fit, read-out: WT ALK enzyme assay (Ki)
Documented Ki across a set of compounds

COMPOUND: CN1Cc2nn(C)c(C#N)c2-c2cnc(N)c(c2)OCc2cc(F)ccc2C1=O [Example 4]
REL: <
Ki [nM]: 0.2
--
COMPOUND: CCn1nnc2c1-c1cnc(N)c(c1)O[C@H](C)c1cc(F)ccc1C(=O)N(C)C2 [Example 133]
REL: =
Ki [nM]: 3.06
--
COMPOUND: C[C@H]1Oc2cc(cnc2N)-c2c(C#N)noc2CN(C)C(=O)c2ccc(F)cc21 [Example 117]
REL: =
Ki [nM]: 2.18
--
COMPOUND: CCc1onc2c1-c1cnc(N)c(n1)O[C@H](C)c1cc(F)ccc1C(=O)N(C)C2 [Example 48]
REL: =
Ki [nM]: 0.2
--
COMPOUND: Cc1nn(C)c2c1-c1cnc(N)c(c1)OC(C)c1cc(F)ccc1C(=O)N(C1CC1)C2 (single isomer, unassigned) [Example 11]
REL: <
Ki [nM]: 0.2
--
COMPOUND: CC1Oc2cc(cnc2N)-c2c(cnn2C)CCCCCOc2ccc(F)cc21 (single isomer, unassigned) [Example 130]
REL: >
Ki [nM]: 3000
--
COMPOUND: C[C@H]1Oc2nc(cnc2N)-c2c(nn(C)c2C#N)CN(C)C(=O)c2ccccc21 [Example 70]
REL: <
Ki [nM]: 0.16
--
COMPOUND: CC1Oc2nc(cnc2N)-c2c(nn(C)c2C#N)Cn2ccnc2-c2ccc(F)cc21 (single isomer, unassigned) [Example 109]
REL: =
Ki [nM]: 8.1
--
COMPOUND: CC1Oc2cc(cnc2N)-c2ccccc2CN(C)C(=O)c2ccc(F)cc21 (centres unmarked) [Example 8]
REL: =
Ki [nM]: 0.9
--
COMPOUND: CCN1Cc2c(c(C)nn2C)-c2cnc(N)c(c2)OC(C)c2cc(F)ccc2C1=O (single isomer, unassigned) [Example 9]
REL: =
Ki [nM]: 0.2
--
COMPOUND: CCC1Oc2cc(cnc2N)-c2c(OC)nn(C)c2CN(C)C(=O)c2ccc(F)cc21 (single isomer, unassigned) [Example 24]
REL: =
Ki [nM]: 4.6
--
COMPOUND: C[C@H]1Oc2nc(cnc2N)-c2c(nn(C3COC3)c2C#N)CN(C)C(=O)c2ccc(F)cc21 [Example 93]
REL: =
Ki [nM]: 0.048
--
COMPOUND: COc1c2c(nn1C)CN(C)C(=O)c1ccc(F)cc1C(C)Oc1cc-2cnc1N (single isomer, unassigned) [Example 19]
REL: <
Ki [nM]: 0.2
--
COMPOUND: C[C@H]1Oc2cc(cnc2N)-c2c(nn(C)c2C#N)CNC(=O)c2ccc(F)cc21 [Example 132]
REL: =
Ki [nM]: 3.32
--
COMPOUND: COc1nn(C)c2c1-c1cnc(N)c(n1)OCc1cc(F)ccc1C(=O)N(C)C2C (single isomer, unassigned) [Example 123]
REL: =
Ki [nM]: 205
--
COMPOUND: CN1Cc2nn(C)c(C#N)c2-c2cnc(N)c(n2)O[C@@H](CF)c2cc(F)ccc2C1=O [Example 94]
REL: =
Ki [nM]: 930
--
COMPOUND: CN1Cc2c(c(C#N)nn2C)-c2cnc(N)c(n2)OC(CF)c2ccccc2C1=O (single isomer, unassigned) [Example 127]
REL: =
Ki [nM]: 0.099
--
COMPOUND: CC1Oc2cc(F)ccc2C(=O)N(C)Cc2nn(C)c(C#N)c2-c2cnc(N)c1c2 (single isomer, unassigned) [Example 77]
REL: =
Ki [nM]: 75
--
COMPOUND: COc1nccc2c1-c1cnc(N)c(n1)OC(C)c1cc(F)ccc1C(=O)N(C)C2 (single isomer, unassigned) [Example 30]
REL: <
Ki [nM]: 0.2
--
COMPOUND: CC1Oc2nc(cnc2N)-c2c(C#N)nn3c2C(CC3)N(C)C(=O)c2ccc(F)cc21 (centres unmarked) [Example 74]
REL: =
Ki [nM]: 0.3
--
COMPOUND: CCc1snc2c1-c1cnc(N)c(c1)O[C@H](C)c1cc(F)ccc1C(=O)N(C)C2 [Example 110]
REL: =
Ki [nM]: 0.56
--
COMPOUND: CC1Oc2cc(cnc2N)-c2c(nn(C)c2C2CC2)CN(C)C(=O)c2ccc(F)cc21 (single isomer, unassigned) [Example 16]
REL: =
Ki [nM]: 213
--
COMPOUND: COc1nn(C)c2c1-c1cnc(N)c(c1)OC(C)c1cccnc1C(=O)N(C)C2 (single isomer, unassigned) [Example 66]
REL: =
Ki [nM]: 19.3
--
COMPOUND: CC1c2nn(C)c(C#N)c2-c2cnc(N)c(n2)OCc2cc(F)ccc2C(=O)N1C (single isomer, unassigned) [Example 80]
REL: >
Ki [nM]: 3000
--
COMPOUND: C[C@H]1Oc2cc(cnc2N)-c2c(nn(C)c2C#N)CN(C)C(=O)c2ccccc21 [Example 71]
REL: <
Ki [nM]: 0.249
--
COMPOUND: C[C@H]1Oc2cc(cnc2N)-c2c(nn(C)c2C#N)CN(C2CC2)C(=O)c2ccc(F)cc21 [Example 55]
REL: <
Ki [nM]: 0.07
--
COMPOUND: Cn1nc2c(c1C#N)-c1cnc(N)c(n1)OCc1cc(F)ccc1COC2 [Example 107]
REL: =
Ki [nM]: 88.5
--
COMPOUND: C[C@H]1Oc2nc(cnc2N)-c2c(C#N)noc2CN(C)C(=O)c2ccc(F)cc21 [Example 73]
REL: =
Ki [nM]: 0.33
--
COMPOUND: Cc1nn(S(=O)(=O)N(C)C)c2c1-c1cnc(N)c(c1)OCc1cc(F)ccc1OCCC2 [Example 44]
REL: =
Ki [nM]: 12

====

In this section, each of the molecules is paired with its reported pKi.
- SYSTEM NAME: human recombinant wild-type ALK kinase domain (amino acids 1093-1411) (Homo sapiens, UniProt Q9UM73)
- Construct: ALK kinase domain (amino acids 1093-1411); made in house
- MEASUREMENT NOTES: Wild-type ALK enzyme assay (microfluidic mobility shift)
- Assay type: biochemical
- REPORTED CONDITIONS: ATP 60 μM, competitive inhibition fit, read-out: WT ALK enzyme assay (Ki)
pKi: −log10 of the molar value.

MOLECULE: CCn1ncc2c1-c1cnc(N)c(c1)O[C@H](C)c1cc(F)ccc1C(=O)N(C)C2
REL: =
pKi: 9.42
--
MOLECULE: CCc1noc2c1-c1cnc(N)c(n1)O[C@H](C)c1cc(F)ccc1C(=O)N(C)C2
REL: =
pKi: 9.54
--
MOLECULE: CCc1onc2c1-c1cnc(N)c(c1)O[C@H](C)c1cc(F)ccc1C(=O)N(C)C2
REL: >
pKi: 9.70
--
MOLECULE: CC1Oc2cc(cnc2N)-c2c(nn(C)c2C#N)CN(C)C(=O)c2c(F)cccc21 (single isomer, unassigned) [Example 52]
REL: =
pKi: 8.92
--
MOLECULE: CC1Oc2cc(cnc2N)-c2c(nn(C)c2C#N)CN(C)C(=O)c2c(F)cccc21 (single isomer, unassigned) [Example 53]
REL: =
pKi: 7.59
--
MOLECULE: COc1noc2c1-c1cnc(N)c(c1)O[C@H](C)c1cc(F)ccc1C(=O)N(C)C2
REL: =
pKi: 10.23
--
MOLECULE: CC(C)Cn1nnc2c1-c1cnc(N)c(c1)O[C@H](C)c1cc(F)ccc1C(=O)N(C)C2
REL: =
pKi: 8.52
--
MOLECULE: CN1Cc2ccc(S(C)(=O)=O)cc2-c2cnc(N)c(c2)OCc2cc(F)ccc2C1=O
REL: =
pKi: 9.47
--
MOLECULE: COc1nn(C)c2c1-c1cnc(N)c(c1)OC(CF)c1cc(F)ccc1C(=O)N(C)C2 (single isomer, unassigned) [Example 86]
REL: >
pKi: 9.70
--
MOLECULE: COc1nn(C)c2c1-c1cnc(N)c(c1)OC(C)c1cccnc1C(=O)N(C)C2 (single isomer, unassigned) [Example 65]
REL: =
pKi: 9.06
--
MOLECULE: CC1Oc2cc(cnc2N)-c2c(nn(C)c2C2CC2)CN(C)C(=O)c2ccc(F)cc21 (single isomer, unassigned) [Example 15]
REL: >
pKi: 9.70
--
MOLECULE: CC1Oc2cc(F)ccc2C(=O)N(C)Cc2nn(C)c(C#N)c2-c2cnc(N)c1c2 (single isomer, unassigned) [Example 76]
REL: =
pKi: 8.51
--
MOLECULE: C[C@H]1Oc2nc(cnc2N)-c2c(C(N)=O)noc2CN(C)C(=O)c2ccc(F)cc21
REL: =
pKi: 8.29
--
MOLECULE: Cc1n[nH]c2c1-c1cnc(N)c(c1)OCc1cc(F)ccc1OCCC2
REL: =
pKi: 9.21
--
MOLECULE: CC1Oc2nc(cnc2N)-c2c(nn(C)c2C#N)CN(C)C(=O)c2ccc(F)cc21 (single isomer, unassigned) [Example 32]
REL: >
pKi: 9.70
--
MOLECULE: COc1nn(C)c2c1-c1cnc(N)c(c1)OC(C1CC1)c1cc(F)ccc1C(=O)N(C)C2 (single isomer, unassigned) [Example 25]
REL: >
pKi: 9.70
--
MOLECULE: CC1Oc2cc(cnc2N)-c2c(C(C)(C)C)nn(C)c2CN(C)C(=O)c2ncccc21 (centres unmarked) [Example 67]
REL: =
pKi: 6.39
--
MOLECULE: CC1Oc2cc(cnc2N)-c2c(C(C)(C)C)nn(C)c2CN(C)C(=O)c2ncccc21 (single isomer, unassigned) [Example 69]
REL: <
pKi: 5.52
--
MOLECULE: CCCn1nnc2c1-c1cnc(N)c(c1)O[C@H](C)c1cc(F)ccc1C(=O)N(C)C2
REL: =
pKi: 8.82
--
MOLECULE: C[C@H]1Oc2nc(cnc2N)-c2c(noc2C#N)CN(C)C(=O)c2ccc(F)cc21
REL: =
pKi: 8.49
--
MOLECULE: CC1Cc2cc(cnc2N)-c2c(nn(C)c2C#N)CN(C)C(=O)c2ccc(F)cc21 (single isomer, unassigned) [Example 63]
REL: =
pKi: 9.92
--
MOLECULE: C[C@H]1Oc2cc(cnc2N)-c2c(cnc3cccnc23)CN(C)C(=O)c2ccc(F)cc21
REL: =
pKi: 8.04
--
MOLECULE: C[C@H]1Oc2nc(cnc2N)-c2c(C#N)nn(CC(F)F)c2CN(C)C(=O)c2ccc(F)cc21
REL: =
pKi: 10.10
--
MOLECULE: CC1Oc2nc(cnc2N)-c2c(nn(C)c2C#N)COCc2ccc(F)cc21 (single isomer, unassigned) [Example 105]
REL: =
pKi: 8.52
--
MOLECULE: CCC1Oc2cc(cnc2N)-c2c(OC)nn(C)c2CN(C)C(=O)c2ccc(F)cc21 (single isomer, unassigned) [Example 23]
REL: >
pKi: 9.70
--
MOLECULE: CC1Cc2cc(cnc2N)-c2c(nn(C)c2C#N)CN(C)C(=O)c2ccc(F)cc21 (single isomer, unassigned) [Example 64]
REL: =
pKi: 7.46
--
MOLECULE: C[C@H]1Oc2cc(cnc2N)-c2c(noc2C#N)CN(C)C(=O)c2ccc(F)cc21
REL: =
pKi: 8.51
--
MOLECULE: COc1c2c(nn1C)CN(C)C(=O)c1ccc(F)cc1C(C)Oc1cc-2cnc1N (single isomer, unassigned) [Example 20]
REL: =
pKi: 7.47
--
MOLECULE: COc1snc2c1-c1cnc(N)c(c1)O[C@H](C)c1cc(F)ccc1C(=O)N(C)C2
REL: >
pKi: 9.70
